- target-or-test-system: Rhodesain (Trypanosoma brucei rhodesiense)
- procedure-details: Ratio of Kinact to Ki for Trypanosoma brucei rhodesiense rhodesain after 10 mins
measurement-kind: Ratio

COC(=O)/C=C/CNC(=O)CN1C(=O)[C@@H](COC(=O)Nc2ccc(Cl)cc2C(F)(F)F)N=C(c2ccc(Br)cc2)c2ccccc21 46000
COC(=O)/C=C/CNC(=O)CN1C(=O)[C@@H](COC(=O)Nc2ccc(Cl)cc2C(F)(F)F)N=C(c2ccccc2)c2cc(Cl)ccc21 220000
COC(=O)/C=C/[C@H](CC(C)C)NC(=O)CN1C(=O)[C@@H](COC(=O)Nc2ccc(Cl)cc2C(F)(F)F)N=C(c2ccccc2)c2ccccc21 36000
COC(=O)/C=C/CNC(=O)CN1C(=O)[C@@H](COC(=O)NC23CC4CC(CC(C4)C2)C3)N=C(c2ccccc2)c2ccccc21 4.62e+06
COC(=O)/C=C/CNC(=O)CN1C(=O)[C@@H](COC(=O)Nc2ccc(Cl)cc2C(F)(F)F)N=C(c2ccccc2)c2ccccc21 34600
